protocol summary: Cytotoxicity against mouse B16F10 cells assessed as cell viability after 24 hrs by MTT assay
Type: cell-based, B16-F10
Parameters: concentration or dose not given beside the values
For each record, write down the corresponding cytotoxicity (% decrease in viability) at 24 h.
Quick note: number first, unit second.

>>> df
                                   molecule  observed
0  CC(=O)Oc1ccccc1/C=C/C(=O)O[C@H]1Cc2cc3ccc(=O)oc3cc2OC1(C)C     63.1%
1  CC(=O)Oc1cc(/C=C/C(=O)O[C@H]2Cc3cc4ccc(=O)oc4cc3OC2(C)C)cc(OC(C)=O)c1OC(C)=O     54.8%
2  CCCCCCCCCC(=O)O[C@H]1Cc2cc3ccc(=O)oc3cc2OC1(C)C     28.2%
3  C=CCC(=O)O[C@H]1Cc2cc3ccc(=O)oc3cc2OC1(C)C      0.6%

Dear reader, for each entry below, please note its cytotoxicity (% decrease in viability) at 24 h.
1. OC[C@H]1O[C@@H](Oc2ccc(O)cc2)[C@H](O)[C@@H](O)[C@@H]1O
2. COc1cc(/C=C/C(=O)O[C@H]2Cc3cc4ccc(=O)oc4cc3OC2(C)C)cc(OC)c1OC
3. CC1(C)Oc2cc3oc(=O)ccc3cc2C[C@@H]1OC(=O)/C=C/c1cccnc1
4. CC(C)=CC(=O)O[C@H]1Cc2cc3ccc(=O)oc3cc2OC1(C)C
5. COc1ccc(/C=C/C(=O)O[C@H]2Cc3cc4ccc(=O)oc4cc3OC2(C)C)cc1
6. C/C=C(\C)C(=O)O[C@H]1Cc2cc3ccc(=O)oc3cc2OC1(C)C [DECURSINOL TIGLATE]
7. CC1(C)Oc2cc3oc(=O)ccc3cc2C[C@@H]1OC(=O)/C=C/c1ccccc1 [DIHYDROPYRANOCOUMARIN D2]

Result:
-6.2%
4.1%
5%
-9.7%
-3.5%
16.4%
0.8%

Dear reader, for each entry below, please note its cytotoxicity (% decrease in viability) at 24 h.
1. CC1(C)Oc2cc3oc(=O)ccc3cc2C[C@@H]1OC(=O)/C=C/c1ccco1
2. CC(=O)Oc1cccc(/C=C/C(=O)O[C@H]2Cc3cc4ccc(=O)oc4cc3OC2(C)C)c1

Result:
["-1.4%", "31.4%"]

Dear reader, for each entry below, please note its cytotoxicity (% decrease in viability) at 24 h.
1. CC1(C)Oc2cc3oc(=O)ccc3cc2C[C@@H]1OC(=O)/C=C/c1ccc(O)cc1
2. COc1ccccc1CCC(=O)O[C@H]1Cc2cc3ccc(=O)oc3cc2OC1(C)C
3. CC1(C)Oc2cc3oc(=O)ccc3cc2C[C@@H]1OC(=O)CCc1ccccc1
4. CC(=O)Oc1ccc(/C=C/C(=O)O[C@H]2Cc3cc4ccc(=O)oc4cc3OC2(C)C)cc1OC(C)=O

Result:
1. 65.8%
2. 6.1%
3. -0.6%
4. 49.4%

Dear reader, for each entry below, please note its cytotoxicity (% decrease in viability) at 24 h.
1. CC/C=C/C(=O)O[C@H]1Cc2cc3ccc(=O)oc3cc2OC1(C)C
2. COc1cccc(/C=C/C(=O)O[C@H]2Cc3cc4ccc(=O)oc4cc3OC2(C)C)c1

Result:
["39.5%", "14.5%"]

----------
For each record, write down the corresponding cytotoxicity (% decrease in viability) at 24 h.
protocol summary: Cytotoxicity against mouse B16F10 cells assessed as cell viability after 24 hrs by MTT assay
Assay type: cell-based, B16-F10
Parameters: concentration or dose not given beside the values
Quick note: number first, unit second.

Previously resolved entries follow.
>>> df
                        structure_as_smiles  observed
0  C=CCCC(=O)O[C@H]1Cc2cc3ccc(=O)oc3cc2OC1(C)C     -0.4%
1  CC1(C)Oc2cc3oc(=O)ccc3cc2C[C@@H]1OC/C=C/c1ccccc1    -12.5%
2  CC1(C)Oc2cc3oc(=O)ccc3cc2C[C@@H]1OC(=O)/C=C/c1cccs1    -15.4%
3  CC(=O)Oc1ccc(/C=C/C(=O)O[C@H]2Cc3cc4ccc(=O)oc4cc3OC2(C)C)cc1       58%

Dear reader, for each entry below, please note its cytotoxicity (% decrease in viability) at 24 h.
1. CC1(C)Oc2cc3oc(=O)ccc3cc2C[C@@H]1OC(=O)/C=C/c1ccc(O)c(O)c1
2. C=C(C)C(=O)O[C@H]1Cc2cc3ccc(=O)oc3cc2OC1(C)C

Result:
1: 67.6%; 2: 58.4%
